Source of measurements: the supplement of paper PMC9170038

Test system: MS2 coat protein
Run Description: apparent KD of MS2 coat protein; designed switch direction (-1 OFF switch, 1 ON switch): 1; higher = weaker reporter binding
Measurement Context: Eterna round: R95; input ligand: FMN 200 uM
Endpoint Label: apparent KD of MS2 coat protein (nM)

query_sequence="ACAAGCUUUUCUGUAUUGAAAGGUGGGAUACAUGAGGAUCACCCAUGUUUGUUUGUUUAUUGUUUUCCUCGUCUUAU [JR_SHM208A_Sub089] (puzzle: Sensor for hsa-mir-208a)" units_symbol=nM numeric_value=71
query_sequence="GUAAGUUCGAUGCUCGUCUCUCCGUACAAACAUGAGGAUCACCCAUGUGAUCGGGCAGUAGCCCGAUCAGUAUGGCC [Xearlaxe] (puzzle: Sensor for hsa-mir-208a)" units_symbol=nM numeric_value=44
query_sequence="AGUCCAGCGAAAGCUGGACAAAAGCAUGUACAUGAGGAUCACCCAUGUUUAUGUACAAGCUUUUUGCUCGUCUUAAA [JL mod - D95 - 11] (puzzle: Sensor for hsa-mir-208a)" units_symbol=nM numeric_value=274
